# PROTOCOL SUMMARY: Particle size distribution by laser diffraction particle size analyzer
# Assay type: physicochemical
# CONDITION DETAILS: drug crystals from PHFAC module without any polymer in the feed solution; various shell/tube side flow rates
QUANTITY NAME: Median size (μm)

{"columns": ["COMPOUND", "Median size / μm"],
 "data": [
  ["COC1=CC(=O)C[C@@H](C)[C@]12Oc1c(Cl)c(OC)cc(OC)c1C2=O [X3, Griseofulvin]", 11.76]
]}

a. COC1=CC(=O)C[C@@H](C)[C@]12Oc1c(Cl)c(OC)cc(OC)c1C2=O [X0, Griseofulvin]
b. COC1=CC(=O)C[C@@H](C)[C@]12Oc1c(Cl)c(OC)cc(OC)c1C2=O [X2, Griseofulvin]
c. COC1=CC(=O)C[C@@H](C)[C@]12Oc1c(Cl)c(OC)cc(OC)c1C2=O [X1, Griseofulvin]
Q: Ascending sort, Median size. Hello, could you send the labels back in the order asked? Thank you.
Ans: a, c, b
